# Tested On: human OX2R (Homo sapiens, UniProt O43614)
# Sequence (O43614 whole entry): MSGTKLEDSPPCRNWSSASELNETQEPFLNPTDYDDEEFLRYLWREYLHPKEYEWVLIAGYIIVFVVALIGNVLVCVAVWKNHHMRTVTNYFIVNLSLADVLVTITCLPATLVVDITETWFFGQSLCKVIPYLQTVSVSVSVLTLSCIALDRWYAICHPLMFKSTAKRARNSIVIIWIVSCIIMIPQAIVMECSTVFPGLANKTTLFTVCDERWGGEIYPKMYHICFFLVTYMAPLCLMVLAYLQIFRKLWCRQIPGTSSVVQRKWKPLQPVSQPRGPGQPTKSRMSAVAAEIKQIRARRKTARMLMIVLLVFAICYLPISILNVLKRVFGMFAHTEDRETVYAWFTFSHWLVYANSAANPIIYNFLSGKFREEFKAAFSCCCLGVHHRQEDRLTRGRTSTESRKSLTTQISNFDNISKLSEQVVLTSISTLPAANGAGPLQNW
# Assay Method Text: Evaluation of OX2R agonist activity (intracellular calcium, CHO-K1 cells with forced expression of human OX2R)
# Assay Conditions: CHO-K1 cells expressing human OX2R; 100% = 5 µM of the reference compound; read-out: hOX2R EC50
Measured Attribute: EC50 (nM)

* C[C@@H](O)C(=O)N1C2CC(C2)[C@H](NS(=O)(=O)C2CC2)[C@@H]1Cc1cccc(-c2ccccc2)c1F | 22
* C[C@@H](O)C(=O)N1C2CC(C2)[C@H](NS(C)(=O)=O)[C@@H]1Cc1cccc(-c2cc(F)cc(C#N)c2)c1F | 189
* CC(C)(O)C(=O)N1C2CC(C2)C(NS(C)(=O)=O)C1Cc1cc(F)cc(-c2cccc(Cl)c2)c1F (single isomer, unassigned) | 70

1: C[C@@H](O)C(=O)N1C2CC(C2)[C@H](NS(C)(=O)=O)[C@@H]1Cc1cccc(-c2ccccc2)c1F
2: CS(=O)(=O)N[C@H]1C2CC(C2)N(C(=O)C2(CO)CC2)[C@H]1Cc1cccc(-c2ccccc2)c1F
3: CS(=O)(=O)N[C@H]1C2CC(C2)N(C(=O)C(O)C(F)F)[C@H]1Cc1cccc(-c2ccccc2)c1F (single isomer, unassigned)
4: CS(=O)(=O)N[C@@H]1[C@H](Cc2cccc(-c3ccccc3)c2F)N(C(=O)[C@H](O)C(F)(F)F)C2CC1(F)C2
Challenge: Sort ascending by EC50. Your reply should list the labels following the order given in the request.
Response given: 1, 4, 2, 3

1: CC(C)S(=O)(=O)N[C@H]1C2CC(C2)N(C(=O)C(C)(C)O)[C@H]1Cc1cccc(-c2cc(F)cc(F)c2)c1F (single isomer, unassigned)
2: CC(C)(O)C(=O)N1C2CC(C2)[C@H](NS(C)(=O)=O)[C@@H]1Cc1cccc(-c2cc(F)cc(C(F)F)c2)c1F
Challenge: Select one. Lower EC50: 1 or 2 Record your answer as the label of the chosen record.
Response given: 2

The measured values listed here are drawn from patent EP4635944A1.
